Entries and their measured microsomal CLint at 1 µM follow.
Experiment: Metabolic stability test: liver microsomal stability assay
Format: in vitro ADME, mouse
Conditions: male, pH 7.4; mouse liver microsomes 0.5 mg protein/mL, compound 1 µM, presence of NADPH; read-out: Mouse Hepatic Microsome CLh,int NADPH(+)
Starred links: 1 amine or outer side, 2 acyl side, 3 side chain; linkers in the order of their positions; H or OH if unused. Positions of bridges follow the written chain, without caps; N, C: chain ends. Non-standard residues stand in square brackets, D forms with d. Residues, ends and D or L forms follow the SMILES beside them. *: point of attachment. NMeF = CN[C@@H](Cc1ccccc1)C(=O)O; NMeGABA = CN(CCCC(=O)[*:2])[*:1]; NMeT = CN[C@H](C(=O)O)[C@@H](C)O; hPhe = N[C@@H](CCc1ccccc1)C(=O)O; NMeL = CN[C@@H](CC(C)C)C(=O)O; NMeV = CN[C@H](C(=O)O)C(C)C; d(β3hA) = C[C@@H](N)CC(=O)O; NMeA = CN[C@@H](C)C(=O)O; Piperidide = C1CCN(*)CC1; Sar = CNCC(=O)O
Number in µL/min/mg, nothing else.

CC[C@H](C)[C@@H]1NC(=O)[C@H](C)N(C)C(=O)CCCN(C)C(=O)C[C@@H](C)NC(=O)[C@H](C(C)C)N(C)C(=O)[C@H](CCc2ccccc2)NC(=O)[C@H](C)N(C)C(=O)[C@H]([C@@H](C)O)N(C)C(=O)[C@H](CC(C)C)N(C)C(=O)[C@H](C(C)C)NC(=O)[C@H](Cc2ccccc2)N(C)C(=O)[C@H](C)N(C)C(=O)[C@H](C(C)C)N(C)C1=O [pd137] (cyclo(I[NMeV][NMeA][NMeF]V[NMeL][NMeT][NMeA][hPhe][NMeV][d(β3hA)][NMeGABA][NMeA]))
14.1

Okay, next one:
Prompt: Entry CC(C)C[C@@H]1NC(=O)[C@H]([C@@H](C)O)N(C)C(=O)[C@@H](C(C)C)NC(=O)C[C@@H](C(=O)N2CCCCC2)NC(=O)[C@H](C(C)C)N(C)C(=O)[C@H](C)N(C)C(=O)[C@H](C(C)C)NC(=O)[C@H](Cc2ccccc2)N(C)C(=O)[C@@H]2CCCN2C(=O)[C@H](CC(C)C)N(C)C(=O)CN(C)C(=O)[C@H](CCc2ccccc2)NC(=O)[C@H](CC(C)C)N(C)C(=O)[C@H](C(C)C)N(C)C1=O [pd040] ([dV][NMeT]L[NMeV][NMeL][hPhe][Sar][NMeL]P[NMeF]V[NMeA][NMeV]D-Piperidide; lactam N-14) : reported microsomal CLint at 1 µM = ?
Response: 24.8

###

Tested on: Caco-2 cells
Assay: Membrane permeability test using Caco-2 cells with preincubation
Type: in vitro ADME
Settings: Caco-2 cells, preincubation 20 to 24 hours; apical FaSSIF/HBSS 1% DMSO pH 6.0, basal HBSS 4% BSA pH 7.4; basal sample at 180 minutes
Starred links: 1 amine or outer side, 2 acyl side, 3 side chain; linkers in the order of their positions; H or OH if unused. Positions of bridges follow the written chain, without caps; N, C: chain ends. Non-standard residues stand in square brackets, D forms with d. Residues, ends and D or L forms follow the SMILES beside them. *: point of attachment. NMedβ3hAla = C[C@H](CC(=O)[*:2])N(C)[*:1]; NMeF = CN[C@@H](Cc1ccccc1)C(=O)O; NMeI = CC[C@H](C)[C@H](NC)C(=O)O; NMeβAla = CN(CCC(=O)[*:2])[*:1]; NMeL = CN[C@@H](CC(C)C)C(=O)O; NMeV = CN[C@H](C(=O)O)C(C)C; NMeAbu = CC[C@H](NC)C(=O)O; NMeA = CN[C@@H](C)C(=O)O; Piperidide = C1CCN(*)CC1; Abu = CC[C@H](N)C(=O)O; Sar = CNCC(=O)O
measurementName: Caco2 Papp (10^-6 cm/sec)

CC[C@@H]1NC(=O)[C@H](CC(C)C)N(C)C(=O)[C@H](Cc2ccccc2)N(C)C(=O)[C@H](CC(C)C)N(C)C(=O)[C@H](C)NC(=O)C[C@@H](C(=O)N2CCCCC2)NC(=O)[C@H](C(C)C)N(C)C(=O)[C@@H]2CCCN2C(=O)CCN(C)C(=O)[C@H](CC(C)C)NC(=O)[C@H]([C@@H](C)CC)N(C)C(=O)[C@H]([C@@H](C)O)NC(=O)[C@H](Cc2ccccc2)N(C)C1=O [pd112] (A[NMeL][NMeF][NMeL][Abu][NMeF]T[NMeI]L[NMeβAla]P[NMeV]D-Piperidide; lactam N-13)
0.35 10^-6 cm/sec

Okay, next one:
Prompt: Entry CC[C@@H]1NC(=O)[C@H](Cc2ccccc2)N(C)C(=O)[C@@H]2CCCN2C(=O)[C@H](CC(C)C)N(C)C(=O)[C@H](C(C)C)NC(=O)[C@H](CC(C)C)N(C)C(=O)[C@H]([C@@H](C)O)NC(=O)[C@H](Cc2ccccc2)N(C)C(=O)CN(C)C(=O)C[C@@H](C)N(C)C(=O)[C@H](C(C)C)NC(=O)[C@H](CC)N(C)C(=O)[C@H](C)N(C)C1=O [pd149] (cyclo([Abu][NMeA][NMeAbu]V[NMedβ3hAla][Sar][NMeF]T[NMeL]V[NMeL]P[NMeF])) : reported Caco2 Papp (10^-6 cm/sec) = ?
Response: 0.20 10^-6 cm/sec

Source: patent EP4768499A1
